Listed below: % Efficiency β values for each entry.
ASSAY_TARGET: RARβ (Homo sapiens)
Sequence (P10826 183-455 limits assumed): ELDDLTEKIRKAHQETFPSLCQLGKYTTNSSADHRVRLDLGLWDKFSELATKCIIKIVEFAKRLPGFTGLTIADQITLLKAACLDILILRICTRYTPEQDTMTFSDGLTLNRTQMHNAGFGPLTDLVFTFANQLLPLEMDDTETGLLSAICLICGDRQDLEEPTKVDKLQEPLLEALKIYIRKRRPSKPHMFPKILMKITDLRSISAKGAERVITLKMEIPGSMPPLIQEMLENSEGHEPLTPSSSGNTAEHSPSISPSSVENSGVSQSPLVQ
PROTOCOL: chimeric receptor transactivation assay, RARβ
Assay type: cell-based
CONDITION: percentage of maximum compared to standard TTNPB

COMPOUND	ASSAY_TARGET	% Efficiency β, %
CC1(C)CC(C)(C)c2cc(C(C=Cc3ccc(C(=O)O)cc3)=NO)ccc21 [drawing 30]	RARβ (Homo sapiens)	104
CC1(C)CCC(C)(C)c2nc(C(C=Cc3ccc(C(=O)O)cc3)=NO)cnc21 [drawing 34]	RARβ (Homo sapiens)	88
CC1(C)CCCc2ccc(C(/C=C/c3ccc(C(=O)O)cc3F)=N\O)cc21	RARβ (Homo sapiens)	95
CC1(C)CCCc2ccc(C(C=Cc3ccc(C(=O)O)cc3)=NO)cc21 [drawing 14]	RARβ (Homo sapiens)	88
CC1(C)CCSc2ccc(C(/C=C/c3ccc(C(=O)O)cc3F)=N/O)cc21	RARβ (Homo sapiens)	55
CC1(C)CCC(C)(C)c2nc(C(C=Cc3ccc(C(=O)O)cc3)=NO)cnc21 [drawing 35]	RARβ (Homo sapiens)	110
CC1(C)CC(C)(C)c2cc(C(C=Cc3ccc(C(=O)O)cc3)=NO)ccc2O1 [drawing 25]	RARβ (Homo sapiens)	97
CC1(C)CCSc2ccc(C(C=Cc3ccc(C(=O)O)cc3)=NO)cc21 [drawing 18]	RARβ (Homo sapiens)	87
COc1cc2c(cc1C(/C=C/c1ccc(C(=O)O)cc1)=N/O)C(C)(C)CCC2(C)C	RARβ (Homo sapiens)	65
CC1(C)CCCc2ccc(C(C=Cc3ccc(C(=O)O)cc3)=NO)cc21 [drawing 12]	RARβ (Homo sapiens)	106
Cc1cc2c(cc1C(C=Cc1ccc(C(=O)O)cc1)=NO)C(C)(C)CCC2(C)C [drawing 36]	RARβ (Homo sapiens)	41
CC1(C)CCC(C)(C)c2cc(C(C=Cc3ccc(C(=O)O)cc3)=NO)ccc21 [drawing 9]	RARβ (Homo sapiens)	112
CCCCCCCN1C(=O)CC(C)(C)c2cc(C(/C=C/c3ccc(C(=O)O)cc3)=N\O)ccc21	RARβ (Homo sapiens)	23
COc1cc2c(cc1C(/C=C/c1ccc(C(=O)O)cc1)=N\O)C(C)(C)CCC2(C)C	RARβ (Homo sapiens)	44
CC1(C)CCSc2ccc(C(C=Cc3ccc(C(=O)O)cc3)=NO)cc21 [drawing 20]	RARβ (Homo sapiens)	102
CC1(C)CC(C)(C)c2cc(C(/C=C/c3ccc(C(=O)O)cc3F)=N\O)ccc21	RARβ (Homo sapiens)	82
CC1(C)CCSc2ccc(C(/C=C/c3ccc(C(=O)O)cc3F)=N\O)cc21	RARβ (Homo sapiens)	45
Cc1cc2c(cc1C(C=Cc1ccc(C(=O)O)cc1)=NO)C(C)(C)CCC2(C)C [drawing 37]	RARβ (Homo sapiens)	14

====

Listed below: pEC50 values for each entry.
ASSAY_TARGET: RARγ (Homo sapiens)
Construct: % Efficiency γ; other: percentage of maximum compared to standard TTNPB
Sequence (P13631 185-454 limits assumed): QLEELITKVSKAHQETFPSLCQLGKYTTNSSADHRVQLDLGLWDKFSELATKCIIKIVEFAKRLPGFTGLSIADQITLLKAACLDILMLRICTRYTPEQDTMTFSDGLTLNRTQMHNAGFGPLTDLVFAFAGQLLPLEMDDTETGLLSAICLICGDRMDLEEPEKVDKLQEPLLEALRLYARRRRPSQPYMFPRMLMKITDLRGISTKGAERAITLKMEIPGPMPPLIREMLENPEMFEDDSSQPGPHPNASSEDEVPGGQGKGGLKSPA
PROTOCOL: chimeric receptor transactivation assay, RARγ
CONDITION: chimeric receptor transactivation; read-out: RAR EC50 γ
pEC50: −log10 of the molar value.

COMPOUND	pEC50
CC1(C)CCC(C)(C)c2nc(C(C=Cc3ccc(C(=O)O)cc3)=NO)cnc21 [drawing 34]	8.00
CC1(C)CCSc2ccc(C(C=Cc3ccc(C(=O)O)cc3)=NO)cc21 [drawing 18]	9.12
CCCCCCCN1C(=O)CC(C)(C)c2cc(C(/C=C/c3ccc(C(=O)O)cc3)=N\O)ccc21	7.04
CC1(C)CCC(C)(C)c2nc(C(C=Cc3ccc(C(=O)O)cc3)=NO)cnc21 [drawing 35]	6.84
CC1(C)CC(C)(C)c2cc(C(C=Cc3ccc(C(=O)O)cc3)=NO)ccc21 [drawing 31]	8.70
CC1(C)CCC(C)(C)c2cc(C(C=Cc3ccc(C(=O)O)cc3F)=NO)ccc21 [drawing 10]	9.96
CC1(C)CCC(C)(C)c2cc(C(C=Cc3ccc(C(=O)O)cc3)=NO)ccc21 [drawing 8]	10.05
CC1(C)CCCc2ccc(C(/C=C/c3ccc(C(=O)O)cc3F)=N/O)cc21	7.36
CC1(C)CCCc2cc(C(C=Cc3ccc(C(=O)O)cc3)=NO)ccc21 [drawing 17]	6.69

====

Target protein (sequence): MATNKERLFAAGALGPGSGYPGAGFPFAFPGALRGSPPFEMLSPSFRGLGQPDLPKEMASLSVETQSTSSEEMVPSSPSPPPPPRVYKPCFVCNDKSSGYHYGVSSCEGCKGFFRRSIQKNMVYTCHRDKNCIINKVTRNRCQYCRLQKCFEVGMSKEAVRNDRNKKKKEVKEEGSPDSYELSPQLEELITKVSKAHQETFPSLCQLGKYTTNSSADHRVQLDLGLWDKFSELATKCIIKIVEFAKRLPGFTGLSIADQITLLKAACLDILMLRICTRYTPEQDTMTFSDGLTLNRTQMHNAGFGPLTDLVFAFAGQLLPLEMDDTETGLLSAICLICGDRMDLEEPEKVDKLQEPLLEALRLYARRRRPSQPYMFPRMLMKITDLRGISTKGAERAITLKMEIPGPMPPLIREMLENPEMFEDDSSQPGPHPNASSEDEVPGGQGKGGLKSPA
pKi: −log10 of the molar value.

COMPOUND	pKi
CC1(C)CC(C)(C)c2cc(C(C=Cc3ccc(C(=O)O)cc3)=NO)ccc21 [drawing 30]	8.22
CC1(C)CCC(C)(C)c2cc(C(C=Cc3ccc(C(=O)O)cc3)=NO)ccc21 [drawing 8]	8.52
CC1(C)CCCc2ccc(C(C=Cc3ccc(C(=O)O)cc3)=NO)cc21 [drawing 12]	8.30
CC1(C)CCSc2ccc(C(C=Cc3ccc(C(=O)O)cc3)=NO)cc21 [drawing 20]	7.26
CC1(C)CC(C)(C)c2cc(C(C=Cc3ccc(C(=O)O)cc3)=NO)ccc21 [drawing 31]	7.41

====

ASSAY_TARGET: RARα (Homo sapiens, UniProt P10276)
Sequence (P10276 183-417 limits assumed): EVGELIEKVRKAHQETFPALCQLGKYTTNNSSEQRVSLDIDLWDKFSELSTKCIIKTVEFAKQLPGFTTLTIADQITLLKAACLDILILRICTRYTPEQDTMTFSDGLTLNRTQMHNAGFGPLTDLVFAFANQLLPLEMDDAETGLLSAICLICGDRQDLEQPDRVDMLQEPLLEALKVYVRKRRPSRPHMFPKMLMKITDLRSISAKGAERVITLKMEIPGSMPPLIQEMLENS
PROTOCOL: chimeric receptor transactivation assay, RARα
CONDITION: chimeric receptor transactivation; read-out: RAR EC50 α
MEASURED_PROPERTY: EC50

COMPOUND	RESULT
CCCCCCCN1C(=O)CC(C)(C)c2cc(C(/C=C/c3ccc(C(=O)O)cc3)=N\O)ccc21	> 1000 nM
CC1=CCC(C)(C)c2cc(C(/C=C/c3ccc(C(=O)O)cc3)=N\O)ccc21	515 nM
CC1(C)CC(C)(C)c2cc(C(C=Cc3ccc(C(=O)O)cc3)=NO)ccc2O1 [drawing 24]	> 10000 nM
CCCCCCCN1C(=O)CC(C)(C)c2cc(C(C=Cc3ccc(C(=O)O)cc3)=NO)ccc21	> 1000 nM
CC1(C)CCC(C)(C)c2cc(C(C=Cc3ccc(C(=O)O)cc3F)=NO)ccc21 [drawing 11]	> 1000 nM
Cc1cc2c(cc1C(C=Cc1ccc(C(=O)O)cc1)=NO)C(C)(C)CCC2(C)C [drawing 37]	> 1000 nM
CC1(C)CCCc2ccc(C(/C=C/c3ccc(C(=O)O)cc3F)=N/O)cc21	118 nM
CC1=CCC(C)(C)c2cc(C(/C=C/c3ccc(C(=O)O)cc3F)=N/O)ccc21	> 1000 nM
CC1(C)CCCc2cc(C(C=Cc3ccc(C(=O)O)cc3)=NO)ccc21 [drawing 16]	> 10000 nM
CC1(C)CC(C)(C)c2cc(C(C=Cc3ccc(C(=O)O)cc3)=NO)ccc21 [drawing 31]	134 nM
CC1(C)CCCc2ccc(C(C=Cc3ccc(C(=O)O)cc3)=NO)cc21 [drawing 12]	2120 nM
CC1(C)CCC(C)(C)c2cc(C(C=Cc3ccc(C(=O)O)cc3)=NO)ccc21 [drawing 8]	441 nM
CC1(C)CCC(C)(C)c2cc(C(C=Cc3ccc(C(=O)O)cc3F)=NO)ccc21 [drawing 10]	> 1000 nM
CC1(C)CCCc2cc(C(C=Cc3ccc(C(=O)O)cc3)=NO)ccc21 [drawing 17]	12000 nM
CC1(C)CCSc2ccc(C(C=Cc3ccc(C(=O)O)cc3)=NO)cc21 [drawing 20]	> 1000 nM
Cc1cc2c(cc1C(C=Cc1ccc(C(=O)O)cc1)=NO)C(C)(C)CCC2(C)C [drawing 36]	> 1000 nM
CC1(C)CC(C)(C)c2cc(C(C=Cc3ccc(C(=O)O)cc3F)=NO)ccc21	> 1000 nM
CC1(C)CCCc2ccc(C(C=Cc3ccc(C(=O)O)cc3)=NO)cc21 [drawing 14]	> 1000 nM
